Entries and their cell viability
- System: Calu-3
- test_name: cell viability relative to DMSO; higher = less toxic
- measurement_context: 72 h; 100 nM
Number in %, nothing else.

{"compound": "COc1cc2nc(N3CCC(N4CCCCC4)CC3)nc(NC3CCCCCC3)c2cc1OC", "assay_system": "Calu-3", "u": "%", "cell viability": 94.7}
{"compound": "CCCCOc1c(C(=O)c2c(F)cc(C)cc2F)c[nH]c2nncc1-2", "assay_system": "Calu-3", "u": "%", "cell viability": 71.1}
{"compound": "C[C@]12CC[C@H](O)CC1=CC[C@@H]1[C@@H]2CC[C@]2(C)C(c3cccnc3)=CC[C@@H]12", "assay_system": "Calu-3", "u": "%", "cell viability": 100}

Exercise: What cell viability value was documented for this compound, CCOC(=O)[N-]c1c[n+](N2CCOCC2)no1 ?
Key: 91.6

Exercise: What cell viability value was documented for this compound, Cc1ccc(-c2ccc(C)cn2)nc1 ?
Key: 95.6

Exercise: What cell viability value was documented for this compound, COC(=O)C1=C(C)NC(C)=C(C(=O)OCCSc2ccccc2)[C@@H]1C ?
Key: 104
